Where do the numbers come from? From ChEMBL document CHEMBL1201862.

Consider the following molecules; for each one, report its GI50.
- Test system: MCF7
- protocol notes: NCI tumour cell line growth inhibition, 48 h
Calls of active or inactive are those of the source. No stated cut-off is given here; in the data, active = GI50 up to about 1.1 µM and inactive = higher.

# example entries with known answers
molecule=COc1ccc(OC)c(-c2cn3c(n2)sc2ccccc23)c1 target_of_assay=MCF7 readout=GI50 observed_result="3.44 µM (inactive)"
molecule=CC[C@]12C=CCN3CC[C@@]4(c5cc(N=O)c(OC)cc5N(C)[C@H]4[C@@](O)(C(=O)OC)[C@@H]1OC(C)=O)[C@@H]32 target_of_assay=MCF7 readout=GI50 observed_result="24.5 µM (inactive)"
molecule=O/N=N/c1ccc2ccccc2n1 target_of_assay=MCF7 readout=GI50 observed_result="> 100 µM (inactive)"
molecule="CC[N+]1(C)CCC(O)(c2ccc(Cl)c(Cl)c2)C(C(=O)c2ccc(Cl)c(Cl)c2)C1 (configuration not stated)" target_of_assay=MCF7 readout=GI50 observed_result="> 10 µM (inactive)"
molecule=CNC(=O)N(CCC#N)CCCN(C(=O)N(C)C)c1ccccc1 target_of_assay=MCF7 readout=GI50 observed_result="> 100 µM (inactive)"

Need GI50 for each of these molecules.
1. CN1CC[C@]23c4c5ccc(O)c4OC2c2[nH]ncc2C[C@H]3[C@H]1C5 (some centres not stated)
2. C=C1C(NC)CCC23CC24CCC2(C)C(C(C)=O)C(O)CC2(C)C4CCC13 (configuration not stated)

1. > 100 µM (inactive)
2. 70.5 µM (inactive)

* * *

- System: OVCAR-3
- protocol notes: NCI tumour cell line growth inhibition, 48 h
Active and inactive are the calls of the source. Rule as the data show it: active = GI50 up to about 1.1 µM and inactive = higher.
# valid calls are active, inactive; nothing else

Observe how each entry below is paired with its result.
molecule=O=C([O-])C[n+]1ccccc1.c1ccncc1 assigned_category=inactive
molecule=Cc1ccc(S(=O)(=O)Oc2nc3ccccc3nc2N(S(=O)(=O)c2ccc(C)cc2)S(=O)(=O)c2ccc(C)cc2)cc1 assigned_category=inactive
molecule=CN(CCCNC(=O)c1nn(C)c2c1Cc1ccccc1-2)CCCNC(=O)c1nn(C)c2c1Cc1ccccc1-2 assigned_category=inactive

Continue with the molecule presented below.
# fetch the recorded call for `CCOC(=O)N1CCc2cc(OC)c(OC)c3c2c1cc1cc(OC)c(OC)cc13` here
active

* * *

- System: SF-268
- protocol notes: NCI tumour cell line growth inhibition, 48 h
Activity calls are given as the source filed them. Cut-off read from the data, not from the text of the source: active = GI50 up to about 1.1 µM and inactive = higher.
# valid calls are active, inactive; nothing else

compound=C#C[C@]1(O)CC[C@H]2[C@@H]3CCC4=C/C(=N\OCCN5CCCC5)CC[C@]4(C)[C@H]3CC[C@@]21C assigned_category=inactive

# fetch the recorded call for `Cc1ccc(S(=O)(=O)Oc2nc3ccccc3nc2N(S(=O)(=O)c2ccc(C)cc2)S(=O)(=O)c2ccc(C)cc2)cc1` here
inactive

# fetch the recorded call for `CCCCCCN(CCCCCC)C(=S)N/N=C(\C)c1ccccn1` here
active

# fetch the recorded call for `COC(=O)C1(C(=O)OC)Cc2ccc(OC)cc2C2=C1C(=O)c1ccccc1C2=O` here
inactive

* * *

Consider the following compounds; for each one, report its GI50.
- Test system: SF-539
- protocol notes: NCI tumour cell line growth inhibition, 48 h
Calls of active or inactive are those of the source. No stated cut-off is given here; in the data, active = GI50 up to about 1.1 µM and inactive = higher.

compound=CCN(CC)N1C(=O)[N-][N+](CC)(CC)C1=O readout=GI50 observed_result="> 100 µM (inactive)"
compound=CC(=O)N(/N=C\c1ccc([N+](=O)[O-])cc1)c1ccccc1 readout=GI50 observed_result="> 100 µM (inactive)"
compound=S=c1sc2ccccc2n1CN1CCN(Cc2ccccc2)CC1 readout=GI50 observed_result="> 100 µM (inactive)"
compound="CC1=CCC[C@@](C)(O)[C@@H]2C[C@H]3C(CSc4ccccc4)C(=O)O[C@H]3[C@@H](O2)[C@H](C)CCC1 (stereo partly drawn)" readout=GI50 observed_result="16.4 µM (inactive)"
compound="CC(CO)CCC(O)C(C)(O)C1CCC2(O)C3=CC(=O)C4CC(O)C(O)CC4(C)C3CCC12C (stereo not drawn)" readout=GI50 observed_result="> 100 µM (inactive)"

Need GI50 for each of these compounds.
1. O=c1cnn(CCOCP(=O)(O)O)c(=O)[nH]1
2. O=C1Nc2ccccc2Nc2ccncc21
3. CCc1cccc(C)c1NC(=O)C(=O)Cc1nc2ccccc2s1
4. c1csc(-c2ccc(-c3cccs3)c3nsnc23)c1

1: > 100 µM (inactive); 2: > 100 µM (inactive); 3: > 100 µM (inactive); 4: 24.4 µM (inactive)

Need GI50 for each of these compounds.
1. O=C(O)CCC1NC(/C(=C/c2ccccc2O)NC(=O)c2ccccc2)OC1=O (stereo not drawn)
2. N#C/C(=C1C=C(Br)/C(=N\O)C=C\1Cl)c1cccc2ccccc12
3. C/C(CN1C(=O)c2ccccc2C1=O)=N\NS(=O)(=O)c1ccc(C)cc1
4. O/N=N/c1ccc(Sc2ccc(/N=N/O)cn2)nc1
5. C=CCN1/C(=C2\SC(=S)N(c3ccc(C)cc3)C2=O)Sc2c1ncn(C)c2=O
6. c1cncc(C2N3CCCCC3[C@@H]3c4[nH]c5ccccc5c4CCN23)c1 (stereo partly drawn)

1. 95.3 µM (inactive)
2. 1.96 µM (inactive)
3. > 100 µM (inactive)
4. > 100 µM (inactive)
5. 90.8 µM (inactive)
6. > 100 µM (inactive)

Need GI50 for each of these compounds.
1. CSc1cnc2ccccc2c1SC1CN(Cc2ccccc2)c2ccccc2C1=O (stereo not drawn)
2. N#CCCN(CCN(C(=O)Nc1ccccc1)c1ccccc1)C(=O)Nc1ccccc1
3. CN1C(C(=O)Nc2ccccn2)=C(O)c2ccccc2S1(=O)=O

> 100 µM (inactive)
> 65 µM (inactive)
> 100 µM (inactive)

* * *

- System: LOX IMVI
- protocol notes: NCI tumour cell line growth inhibition, 48 h
Activity calls are given as the source filed them. No stated cut-off is given here; in the data, active = GI50 up to about 1.1 µM and inactive = higher.
Consider the following compounds; for each one, report its GI50.

# example entries with known answers
compound="N#Cc1c(-c2ccccc2)c(C#N)c(=S)n(C2OC(CO)C(O)C(O)C2O)c1O (stereo not drawn)" target_of_assay="LOX IMVI" readout=GI50 observed_result="> 100 µM (inactive)"
compound=Cc1cc(C)nc(NS(=O)(=O)c2ccc(Nc3c4ccccc4nc4c(C(=O)Nc5ccc(S(N)(=O)=O)cc5)cccc34)cc2)n1 target_of_assay="LOX IMVI" readout=GI50 observed_result="75.9 µM (inactive)"

Alright, here's another compound for you.
So for c1ccc(C[N+]23C(CC[C@H]2c2ccccc2)CC[C@H]3c2ccccc2)cc1 (stereo partly drawn) , the logged GI50 turned out to be 29.2 µM (inactive)

* * *

- System: HT-29
- protocol notes: NCI tumour cell line growth inhibition, 48 h
Activity calls are given as the source filed them. No stated cut-off is given here; in the data, active = GI50 up to about 1.1 µM and inactive = higher.
Consider the following molecules; for each one, report its GI50.

# example entries with known answers
molecule=COc1cc2ncnc(Nc3cccc(Br)c3)c2cc1OC target_of_assay=HT-29 observed_result="3.83 µM (inactive)"
molecule="CC(=O)NC1C(OCc2ccccc2)OC(CO)C(O)C1OC(C)C(=O)NC(C(=O)NC(CCC(=O)NCCCNc1ccc([N+](=O)[O-])c2[nH]c3ccccc3c(=O)c12)C(N)=O)C(C)C (stereo not drawn)" target_of_assay=HT-29 observed_result="> 100 µM (inactive)"

Alright, here's another molecule for you.
So for CC[N+]1(C)CCC(O)(c2ccc(Cl)c(Cl)c2)C(C(=O)c2ccc(Cl)c(Cl)c2)C1 (stereo not drawn) , the logged GI50 turned out to be > 10 µM (inactive)

* * *

- Test system: M14
- protocol notes: NCI tumour cell line growth inhibition, 48 h
Activity calls are given as the source filed them. No stated cut-off is given here; in the data, active = GI50 up to about 1.1 µM and inactive = higher.
readout: GI50

compound=Cc1ccc(C(=O)N(Cc2ccccc2)Cc2ccccc2)cc1/N=N/N(C)C target_of_assay=M14 readout=GI50 observed_result="18.1 µM (inactive)"
compound="CN(C)CC1CCCc2ccccc2C1=O (stereo not given)" target_of_assay=M14 readout=GI50 observed_result="1.85 µM (inactive)"
compound="CN(C)CS/C(N)=N\\C(O)C(Cl)(Cl)Cl (stereo not given)" target_of_assay=M14 readout=GI50 observed_result="> 100 µM (inactive)"
compound=NC(=O)COc1c(Br)cc(Br)cc1Br target_of_assay=M14 readout=GI50 observed_result="> 100 µM (inactive)"

Need GI50 for each of these compounds.
1. Nc1nc(F)nc2c1ncn2C1OC(CO)C(O)C1O (stereo not given)
2. OCc1ccn2c1[C@@H](O)CC2
3. c1ccc(C[N+]23C(CC[C@H]2c2ccccc2)CC[C@H]3c2ccccc2)cc1 (stereo not given in full)
4. C/C=C\C(CC(=O)NCCc1cn(C(=O)OCc2ccccc2)c2ccccc12)CC(=O)OC (stereo not given)

1. 8.53 µM (inactive)
2. > 100 µM (inactive)
3. 21.6 µM (inactive)
4. 86.7 µM (inactive)

Need GI50 for each of these compounds.
1. COC1C=C(NCC2(CO)CCC2)N=C(N)N1 (stereo not given)
2. CCN(CC)CCSc1nc2c(c(=N)n1-c1ccccc1)c(=S)n(-c1ccccc1)c(=S)n2-c1ccccc1

1: > 100 µM (inactive); 2: 2.16 µM (inactive)
